target: Na+ channel currents in LQT3 patient-derived cardiomyocytes (Homo sapiens, UniProt Q14524); assay: Whole cell patch clamp of Na+ currents (INaP, INaL) in hIPSC LQT3 patient-derived cardiomyocytes; format: cell-based; conditions: LQT3 patient-derived cardiomyocytes; read-out: NaI channel Late (INaL) IC50
Sequence (Q14524 whole entry F1473C, form open): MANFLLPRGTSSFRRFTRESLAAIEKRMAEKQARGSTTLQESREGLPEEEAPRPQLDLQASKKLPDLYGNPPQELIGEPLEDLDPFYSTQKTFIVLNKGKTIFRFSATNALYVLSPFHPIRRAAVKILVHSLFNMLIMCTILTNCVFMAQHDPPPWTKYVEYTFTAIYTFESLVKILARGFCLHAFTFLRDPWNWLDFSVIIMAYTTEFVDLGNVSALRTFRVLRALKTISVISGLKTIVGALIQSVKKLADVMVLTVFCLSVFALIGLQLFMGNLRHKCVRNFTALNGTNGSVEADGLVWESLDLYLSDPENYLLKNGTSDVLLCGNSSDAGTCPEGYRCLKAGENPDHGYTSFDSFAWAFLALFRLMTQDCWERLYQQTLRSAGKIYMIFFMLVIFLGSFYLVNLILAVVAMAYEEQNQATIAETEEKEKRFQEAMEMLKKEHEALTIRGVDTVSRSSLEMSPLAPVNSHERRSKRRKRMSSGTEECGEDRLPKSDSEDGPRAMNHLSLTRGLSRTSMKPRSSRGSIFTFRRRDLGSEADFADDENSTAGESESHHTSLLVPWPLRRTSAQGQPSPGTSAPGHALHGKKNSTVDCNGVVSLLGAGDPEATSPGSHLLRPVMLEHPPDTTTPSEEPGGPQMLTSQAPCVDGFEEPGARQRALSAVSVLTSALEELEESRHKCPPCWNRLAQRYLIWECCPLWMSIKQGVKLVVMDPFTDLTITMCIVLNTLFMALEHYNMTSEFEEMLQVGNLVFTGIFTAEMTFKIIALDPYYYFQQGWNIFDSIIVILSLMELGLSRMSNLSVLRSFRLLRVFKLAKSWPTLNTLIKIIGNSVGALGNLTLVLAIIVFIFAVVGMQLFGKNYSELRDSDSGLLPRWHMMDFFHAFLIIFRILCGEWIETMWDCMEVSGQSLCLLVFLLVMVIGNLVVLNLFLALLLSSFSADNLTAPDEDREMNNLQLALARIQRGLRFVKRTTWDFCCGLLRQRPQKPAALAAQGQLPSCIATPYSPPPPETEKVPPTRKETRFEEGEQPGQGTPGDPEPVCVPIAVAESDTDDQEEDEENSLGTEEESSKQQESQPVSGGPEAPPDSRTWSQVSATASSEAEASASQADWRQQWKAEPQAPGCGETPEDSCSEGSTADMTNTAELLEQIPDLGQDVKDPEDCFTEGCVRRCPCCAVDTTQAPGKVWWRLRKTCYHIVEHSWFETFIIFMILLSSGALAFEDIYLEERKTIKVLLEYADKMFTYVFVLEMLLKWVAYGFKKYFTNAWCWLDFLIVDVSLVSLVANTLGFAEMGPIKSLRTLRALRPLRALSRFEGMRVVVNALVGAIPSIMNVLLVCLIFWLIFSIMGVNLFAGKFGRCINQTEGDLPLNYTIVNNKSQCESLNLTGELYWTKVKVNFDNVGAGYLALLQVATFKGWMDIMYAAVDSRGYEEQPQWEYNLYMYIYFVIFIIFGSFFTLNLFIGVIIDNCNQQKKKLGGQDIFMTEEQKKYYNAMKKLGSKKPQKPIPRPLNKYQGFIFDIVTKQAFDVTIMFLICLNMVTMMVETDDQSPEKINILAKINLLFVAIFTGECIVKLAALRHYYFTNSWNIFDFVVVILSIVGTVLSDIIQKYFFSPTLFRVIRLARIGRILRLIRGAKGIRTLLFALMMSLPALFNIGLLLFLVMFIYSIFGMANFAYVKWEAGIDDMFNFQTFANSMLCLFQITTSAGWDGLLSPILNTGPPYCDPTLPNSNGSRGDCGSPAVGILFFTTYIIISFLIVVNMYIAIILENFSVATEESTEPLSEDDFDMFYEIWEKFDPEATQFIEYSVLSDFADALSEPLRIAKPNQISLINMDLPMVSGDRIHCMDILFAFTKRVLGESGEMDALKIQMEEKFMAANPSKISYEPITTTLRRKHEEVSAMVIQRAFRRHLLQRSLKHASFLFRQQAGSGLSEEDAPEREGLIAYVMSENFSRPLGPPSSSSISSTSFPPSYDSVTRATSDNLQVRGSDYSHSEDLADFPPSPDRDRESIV
value_type: pIC50
Answers are plain numbers, as −log10 of the molar value.

What pIC50 value was documented for this compound, Cc1ccccc1OCC(N)c1ccccc1 (stereo not shown) [Compound 25, 1-phenyl-2-(o-tolyloxy)ethanamine] ?
5.76

---

assay: Chemical stability in PBS buffer at pH 7.4 or 3.0, 37° C.; format: physicochemical; details: pH 7.4, 100 μM in PBS, 1% Ethanol, read-out: Half-Life @ pH 7.4 and 37° C.
Could you please report measured half-life at 100 μM for the items listed next?

A selection of reference data follows.
Cl.NC(COc1cc(C(F)(F)F)cc(C(F)(F)F)c1)c1ccccc1 (stereo not drawn) [Compound 78]    > 30 days
Cc1cc(C)cc(OCC(N)c2ccccc2)c1.Cl (racemic) [Compound 70]    > 30 days
Cc1ccccc1OCC(N)c1ccccc1 (stereo not drawn) [Compound 25, 1-phenyl-2-(o-tolyloxy)ethanamine]    > 30 days
Cc1cc(C)cc(OCC(N)c2ccccc2)c1 (stereo not drawn) [drawing 309]    > 30 days
NC(COc1ccccc1C(F)(F)F)c1ccccc1 (stereo not drawn) [drawing 312]    > 30 days

Moving on to the next compound.
Consider the compound NC(COc1cc(C(F)(F)F)cc(C(F)(F)F)c1)c1ccccc1 (stereo not drawn) [drawing 310] and give its measured half-life at 100 μM.
30 days

---

test system: cardiomyocytes derived from hiPSCs from a LQTS3 patient; details: LQT3 cardiomyocytes
Structures can show the parent of a compound that is named as a salt.
value_type: LQT-Cessation Dose

// solved cases for LQT-Cessation Dose follow
CCc1ccccc1OCC(C)N (centres unmarked) [Compound 50, 1-(2-Ethylphenoxy)propan-2-amine]    None
Cc1cccnc1OCC(O)c1ccccc1 (centres unmarked) [Compound 21]    None
CC(N)COc1ccccn1 (centres unmarked) [Compound 48, (Pyridin-2-yloxy)propan-2-amine]    None
Cc1cccc(Cl)c1OC[C@@H](C)N [Compound 56]    None
C[C@H](N)COc1ccccc1.Cl [Compound 72]    None
Cc1cccc(C)c1OC[C@H](C)N [Compound 2b, (S)-(+)-Mexiletine Hydrochloride, reference compound]    None

Could you tell me LQT-Cessation Dose for each of these compounds? They are listed below.
1. Cc1cccc(C)c1OCC(C)N (racemic) [Compound 1, Mexiletine, reference compound]
2. Cc1cccc2c1OCC(C1CC1)NC2.Cl (centres unmarked) [Compound 74]
3. CC(N)COC1CCCCC1.Cl (centres unmarked) [Compound 87]
4. C[C@@H](N)COc1ccccc1.Cl [Compound 71]
5. CCNC(C)COc1c(C)cccc1C (centres unmarked) [Compound 41]

["None", "None", "None", "None", "None"]

---

tested on: normal human induced pluripotent stem cell (hiPSC) cardiomyocyte; settings: normal hiPSC cardiomyocytes
value_type: Cessation of Beating

C[C@H](N)COc1ccccc1Cl [Compound 59]    None
CC(=O)NC(C)COc1c(C)cccc1C (stereo not drawn) [Compound 53]    None
Cc1cccc(Cl)c1OC[C@@H](C)N [Compound 56]    None

---

system: normal human induced pluripotent stem cell (hiPSC) cardiomyocyte; conditions: normal hiPSC cardiomyocytes
value_type: Cessation of Beating

CCCNC(COc1cccc(C)c1C)c1ccccc1 (stereo not shown)    None
Cc1cc(OCC(N)c2ccccc2)cc(C)n1.Cl (stereo not shown)    None
Cc1ccnc(OCC(N)c2ccccc2)c1 (stereo not shown)    None
CCNC(C)COc1c(C)cccc1C (stereo not shown)    None
Cc1cccc(C)c1OCC(NC(=O)c1ccccc1)c1ccccc1 (stereo not shown)    None
CC(N)COc1ccccn1 (stereo not shown)    None

Give measured Cessation of Beating for every item shown.
1. C[C@H](N)COc1ccccc1.Cl
2. Cc1cccc(C)c1OCC(C)O (stereo not shown)
3. Cc1cc(C)cc(OCC(C)N)c1 (stereo not shown)
4. CCc1ccccc1OCC(C)N (stereo not shown)

1: None; 2: None; 3: None; 4: None
